Target: T1, human TIGIT-His protein (human, UniProt Q495A1 22-141)
T1 construct: Recombinant protein; also called human TIGIT-his tag; hTIGIT-His
T1 sequence (looked up): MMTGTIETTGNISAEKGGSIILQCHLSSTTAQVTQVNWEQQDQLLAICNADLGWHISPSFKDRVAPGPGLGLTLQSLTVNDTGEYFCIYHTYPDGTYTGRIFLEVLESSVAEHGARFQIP
Assay: SPR (Biacore) affinity ranking, human TIGIT-His
Documented kon across a set of binders
Just the number please, in M⁻¹ s⁻¹, no unit attached.

I have this binder here, 76D12B10-Hu02 (antibody, V domains shown, Humanized, VH.V2 + VK.V0) VH: EVQLQESGPGLVKPSETLSLTCAVSGYSISSGYDWHWIRQPPGKGLEWIGFIRDSGSTVYNPSLKGRITISHDTSKNQFSLKLSSVTAADTAVYYCARGLFWYFDVWGQGTTVTVSS VL: DIQMTQSPSSLSASVGDRVTITCRTSENIFSYLAWYQQKPGKVPKLLIYNTKTLAEGVPSRFSGSGSGTDFTLTISSLQPEDVATYYCQHHYGNPLTFGQGTKLEIK , and I need its recorded kon.
4.98e+06

Try 76D12B10-Hu12 (antibody, V domains shown, Humanized, VH.V2 + VK.V2) VH: EVQLQESGPGLVKPSETLSLTCAVSGYSISSGYDWHWIRQPPGKGLEWIGFIRDSGSTVYNPSLKGRITISHDTSKNQFSLKLSSVTAADTAVYYCARGLFWYFDVWGQGTTVTVSS VL: DIQMTQSPSSLSASVGDRVTITCRTSENIFSYLAWYQQKPGKVPKLLVHNTKTLAEGVPSRFSGSGSGTDFTLTISSLQPEDVATYYCQHHYGNPLTFGQGTKLEIK next.
5.75e+06

Try 76D12B10 chimeric antibody (antibody, V domains shown, Mouse variable regions of hybridoma clone 76D12B10; tested as chimeric mAb (detected with anti-human IgG); also called 76D12B10-Chimera; 76D12B10 chimera) VH: DVQLQESGPGMVKPSQSLSLTCTATGYSITSGYDWHWIRHFPGKKLEWMGFIRDSGSTVYNPSLKGRISITHDTSKNRFFLKLNSVTPEDTATYFCARGLFWYFDVWGTGTTVTVSS VL: DIQMTQSPASLSASVGETVTITCRTSENIFSYLAWYQQKQGNSPQLLVHNTKTLAEGVPSRFSGSGSGTQFSLKISNLQPEDFGSYYCQHHYGNPLTFGAGTKLELK next.
1.13e+07
